# GI50 values compiled below
Test system: HT29 cells (colorectal adenocarcinoma)
method_summary: cells
run_parameters: HT29; 72 hours treatment; SRB
recorded_endpoint: GI50 (nM)

compound: COc1c(C)cc2c(c1O)[C@@H]1[C@@H]3[C@@H]4SC[C@]5(N[C@@H](C)Cc6c5[nH]c5ccccc65)C(=O)OC[C@@H](c5c6c(c(C)c(OC(C)=O)c54)OCO6)N3[C@@H](O)[C@H](C2)N1C
target: HT29 cells (colorectal adenocarcinoma)
reported_measurement: 10.3

compound: COc1ccc2[nH]c3c(c2c1)C[C@@H](CN)N[C@]31CS[C@@H]2c3c(OC(C)=O)c(C)c4c(c3[C@H](COC1=O)N1[C@@H]2[C@H]2c3c(cc(C)c(OC)c3O)C[C@@H]([C@@H]1C#N)N2C)OCO4
target: HT29 cells (colorectal adenocarcinoma)
reported_measurement: 2.79

compound: COc1c(C)cc2c(c1O)[C@@H]1[C@@H]3[C@@H]4SC[C@]5(N[C@H](C(=O)O)Cc6c5[nH]c5ccccc65)C(=O)OC[C@@H](c5c6c(c(C)c(OC(C)=O)c54)OCO6)N3[C@@H](C#N)[C@H](C2)N1C [Compound 14-S, reference compound]
target: HT29 cells (colorectal adenocarcinoma)
reported_measurement: 121

compound: COc1c(C)cc2c(c1O)[C@@H]1[C@@H]3[C@@H]4SC[C@]5(N[C@@H](CO)Cc6c5oc5ccccc65)C(=O)OC[C@@H](c5c6c(c(C)c(OC(C)=O)c54)OCO6)N3[C@@H](C#N)[C@H](C2)N1C
target: HT29 cells (colorectal adenocarcinoma)
reported_measurement: 0.541

compound: COc1ccc2oc3c(c2c1)CCN[C@]31CS[C@@H]2c3c(OC(C)=O)c(C)c4c(c3[C@H](COC1=O)N1[C@@H]2[C@H]2c3c(cc(C)c(OC)c3O)C[C@@H]([C@@H]1C#N)N2C)OCO4
target: HT29 cells (colorectal adenocarcinoma)
reported_measurement: 54.1

compound: COc1c(C)cc2c(c1O)[C@@H]1[C@@H]3[C@@H]4SC[C@]5(N[C@@H](C)Cc6c5[nH]c5ccccc65)C(=O)OC[C@@H](c5c6c(c(C)c(OC(C)=O)c54)OCO6)N3[C@@H](C#N)[C@H](C2)N1C [B, reference compound]
target: HT29 cells (colorectal adenocarcinoma)
reported_measurement: 8.48

compound: COc1c(C)cc2c(c1O)[C@@H]1[C@@H]3[C@@H]4SC[C@]5(N[C@@H](CN)Cc6c5[nH]c5ccccc65)C(=O)OC[C@@H](c5c6c(c(C)c(OC(C)=O)c54)OCO6)N3[C@@H](C#N)[C@H](C2)N1C
target: HT29 cells (colorectal adenocarcinoma)
reported_measurement: 1.39

compound: COc1ccc2[nH]c3c(c2c1)C[C@@H](C(=O)O)N[C@]31CS[C@@H]2c3c(OC(C)=O)c(C)c4c(c3[C@H](COC1=O)N1[C@@H]2[C@H]2c3c(cc(C)c(OC)c3O)C[C@@H]([C@@H]1C#N)N2C)OCO4 [Compound 28-S, reference compound]
target: HT29 cells (colorectal adenocarcinoma)
reported_measurement: 251

The reported measurements were obtained from patent US12384800B2.
